- Test system: SW-620 colon
- Measurement description: NCI-60 one-dose screen, 48 h (100 = growth as untreated, 0 = no growth, -100 = all killed)
- Test context: 10 µM unless noted
The panel holds about 83,000 compounds, 20% with a hit somewhere; the sample as a whole holds those more often. The source made the active and inactive calls. Rule for the calls: active = growth percent below 10; inactive = the rest.
# growth values compiled below

Examples from the recorded data:
[Q] Request the reported growth associated with O=[N+]([O-])c1ccc(-c2cc3c(Nc4ccc(Cl)c(C(F)(F)F)c4)ncnc3s2)cc1
[A] 16.8% (inactive)

[Q] Request the reported growth associated with CC(C)(C)c1ccc(C(=O)Nc2sc3c(c2C(N)=O)CCC(=O)C3)cc1
[A] -36.7% (active)

[Q] Request the reported growth associated with Cc1ccc(/C(=N\N=C(N)N)c2ccccc2)cc1
[A] 30.3% (inactive)

[Q] Request the reported growth associated with N#Cc1c(N)nc2c(nnn2-c2cccc(Br)c2)c1N
[A] 96.9% (inactive)

[Q] Request the reported growth associated with CCCCCCNc1cc(C)nc2ccc(OC)cc12
[A] 68.7% (inactive)

[Q] Request the reported growth associated with C=CCOc1cccc(/C=C2\SC(=Nc3ccc(O)cc3)NC2=O)c1
[A] 23.4% (inactive)

[Q] Request the reported growth associated with O=S(=O)(Cc1ccccc1)c1nc2ccccc2s1
[A] 26.3% (inactive)

[Q] Request the reported growth associated with CCCCNC(=O)NS(=O)(=O)c1ccc(N2N=C(c3ccc(C)cc3C)CC2c2ccc(N(C)C)cc2)cc1 (stereo unspecified)
[A] 61.8% (inactive)

---
[Q] Request the reported growth associated with Cc1cc(-c2ccc(N(C)C)cc2)c2sc(=O)[nH]c2n1
[A] 38.3% (inactive)

[Q] Request the reported growth associated with CS(=O)(=O)c1ccc(N/N=C/c2c(-c3ccc(S(C)(=O)=O)cc3)[nH]c3ccc(F)cc23)cc1
[A] 59.7% (inactive)

[Q] Request the reported growth associated with CCOC(=O)C1=C(C)NC(SCc2nnc(-c3ccc(Cl)cc3)o2)=NC1c1ccc(Cl)cc1Cl (stereo unspecified)
[A] 66.2% (inactive)
